# system name: human EGFR (native sequence) (Homo sapiens)
# Sequence (P00533 25-1210): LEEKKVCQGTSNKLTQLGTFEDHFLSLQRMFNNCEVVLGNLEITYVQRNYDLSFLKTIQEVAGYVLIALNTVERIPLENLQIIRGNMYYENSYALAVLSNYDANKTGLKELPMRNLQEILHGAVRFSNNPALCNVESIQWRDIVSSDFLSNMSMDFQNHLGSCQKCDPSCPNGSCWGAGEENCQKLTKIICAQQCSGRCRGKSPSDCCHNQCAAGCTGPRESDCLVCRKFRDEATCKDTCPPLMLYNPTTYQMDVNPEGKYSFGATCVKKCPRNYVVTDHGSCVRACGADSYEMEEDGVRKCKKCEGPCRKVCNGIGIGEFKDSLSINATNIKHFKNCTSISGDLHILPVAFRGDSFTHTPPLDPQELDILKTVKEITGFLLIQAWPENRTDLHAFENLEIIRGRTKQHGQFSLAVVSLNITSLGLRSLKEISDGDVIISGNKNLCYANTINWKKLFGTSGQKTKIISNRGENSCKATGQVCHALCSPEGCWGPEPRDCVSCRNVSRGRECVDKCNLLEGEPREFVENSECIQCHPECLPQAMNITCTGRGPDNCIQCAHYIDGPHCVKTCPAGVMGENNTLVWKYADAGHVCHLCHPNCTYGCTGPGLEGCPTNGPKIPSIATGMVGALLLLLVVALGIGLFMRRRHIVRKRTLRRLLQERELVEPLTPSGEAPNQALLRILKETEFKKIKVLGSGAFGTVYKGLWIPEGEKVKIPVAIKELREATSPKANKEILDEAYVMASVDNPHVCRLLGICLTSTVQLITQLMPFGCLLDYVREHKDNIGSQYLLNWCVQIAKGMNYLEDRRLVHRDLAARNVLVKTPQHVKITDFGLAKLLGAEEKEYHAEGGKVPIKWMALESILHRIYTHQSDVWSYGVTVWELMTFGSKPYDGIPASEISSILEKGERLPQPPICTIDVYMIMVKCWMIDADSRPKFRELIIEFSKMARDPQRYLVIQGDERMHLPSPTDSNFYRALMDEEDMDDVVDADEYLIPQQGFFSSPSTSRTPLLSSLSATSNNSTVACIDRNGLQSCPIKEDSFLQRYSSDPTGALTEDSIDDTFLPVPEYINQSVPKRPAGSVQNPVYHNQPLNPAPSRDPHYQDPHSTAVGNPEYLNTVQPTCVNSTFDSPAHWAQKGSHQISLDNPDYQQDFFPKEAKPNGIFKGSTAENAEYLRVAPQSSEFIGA
# assay text: Kinase inhibition, human EGFR (native sequence)
# Assay type: biochemical
# assay context: 10 μM ATP; 10 pt curves, 3 μM top concentration (singlicates)
assay readout: IC50

Previously resolved entries follow.
C=CC(=O)N(C)c1ccc(OC)c(Nc2ncc(Cl)c(Nc3ccccc3P(C)(C)=O)n2)c1 [Example 44] ... 101 to 250 nM
COCCOc1cc(OC)c(Nc2ncc(Cl)c(Nc3ccccc3P(C)(C)=O)n2)cc1NC(=O)/C=C/CN(C)C [Example 57] ... ≥ 250 nM
C=CC(=O)Nc1cc(Nc2ncc(Cl)c(Nc3ccccc3P(C)(C)=O)n2)c(OC)cc1OCCN(C)C [Example 19] ... < 51 nM
COc1ccc(NC(=O)C2CO2)cc1Nc1ncc(Cl)c(Nc2ccccc2P(C)(C)=O)n1 (stereo not drawn) [Example 58] ... < 51 nM

(Q) Give the measured IC50 of C=CC(=O)Nc1cc(Nc2ncc(Cl)c(Nc3cccc(C)c3P(=O)(CC)CC)n2)c(OC)cc1F [Example 49] .
(A) < 51 nM

(Q) Give the measured IC50 of C=CC(=O)Nc1cc(Nc2ncc(Cl)c(Nc3ccccc3P(C)(C)=O)n2)c(OC)cc1OCCN(C)CCOC [Example 39] .
(A) < 51 nM

(Q) Give the measured IC50 of C=CC(=O)N(C(=O)C=C)c1ccc(OC)c(Nc2ncc(Cl)c(Nc3ccccc3P(C)(C)=O)n2)c1 [Example 26] .
(A) ≥ 250 nM

(Q) Give the measured IC50 of C=CC(=O)Nc1cc(Nc2ncc(Cl)c(Nc3ccccc3P(C)(C)=O)n2)c(OC)cc1CCCN(CC)CC [Example 40] .
(A) < 51 nM

(Q) Give the measured IC50 of C=CC(=O)Nc1cc(Nc2ncc(Cl)c(Nc3ccccc3P(C)(C)=O)n2)c(OC)cc1O[C@H](COC)CN(CC)CC (stereo in doubt) [Example 30] .
(A) < 51 nM

(Q) Give the measured IC50 of C=CC(=O)Nc1cc(Nc2ncc(Cl)c(Nc3ccccc3P(C)(C)=O)n2)c(OC)cc1OC(COC)CN(CC)CC (stereo not drawn) [Example 27] .
(A) < 51 nM

(Q) Give the measured IC50 of C=CC(=O)Nc1ccc(OC)c(Nc2ncc(Cl)c(Nc3ccccc3P(C)(C)=O)n2)c1 [Example 1] .
(A) 51 to 100 nM
